tested-system: F508delCFTR (Homo sapiens, UniProt P13569, DEL508-508)
Construct: expressed in transfected cells; host or cells: CFBE41o- (human lung derived epithelial cell line), doxycycline-inducible expression
Sequence (P13569 with tags, fused parts or gaps DEL508-508): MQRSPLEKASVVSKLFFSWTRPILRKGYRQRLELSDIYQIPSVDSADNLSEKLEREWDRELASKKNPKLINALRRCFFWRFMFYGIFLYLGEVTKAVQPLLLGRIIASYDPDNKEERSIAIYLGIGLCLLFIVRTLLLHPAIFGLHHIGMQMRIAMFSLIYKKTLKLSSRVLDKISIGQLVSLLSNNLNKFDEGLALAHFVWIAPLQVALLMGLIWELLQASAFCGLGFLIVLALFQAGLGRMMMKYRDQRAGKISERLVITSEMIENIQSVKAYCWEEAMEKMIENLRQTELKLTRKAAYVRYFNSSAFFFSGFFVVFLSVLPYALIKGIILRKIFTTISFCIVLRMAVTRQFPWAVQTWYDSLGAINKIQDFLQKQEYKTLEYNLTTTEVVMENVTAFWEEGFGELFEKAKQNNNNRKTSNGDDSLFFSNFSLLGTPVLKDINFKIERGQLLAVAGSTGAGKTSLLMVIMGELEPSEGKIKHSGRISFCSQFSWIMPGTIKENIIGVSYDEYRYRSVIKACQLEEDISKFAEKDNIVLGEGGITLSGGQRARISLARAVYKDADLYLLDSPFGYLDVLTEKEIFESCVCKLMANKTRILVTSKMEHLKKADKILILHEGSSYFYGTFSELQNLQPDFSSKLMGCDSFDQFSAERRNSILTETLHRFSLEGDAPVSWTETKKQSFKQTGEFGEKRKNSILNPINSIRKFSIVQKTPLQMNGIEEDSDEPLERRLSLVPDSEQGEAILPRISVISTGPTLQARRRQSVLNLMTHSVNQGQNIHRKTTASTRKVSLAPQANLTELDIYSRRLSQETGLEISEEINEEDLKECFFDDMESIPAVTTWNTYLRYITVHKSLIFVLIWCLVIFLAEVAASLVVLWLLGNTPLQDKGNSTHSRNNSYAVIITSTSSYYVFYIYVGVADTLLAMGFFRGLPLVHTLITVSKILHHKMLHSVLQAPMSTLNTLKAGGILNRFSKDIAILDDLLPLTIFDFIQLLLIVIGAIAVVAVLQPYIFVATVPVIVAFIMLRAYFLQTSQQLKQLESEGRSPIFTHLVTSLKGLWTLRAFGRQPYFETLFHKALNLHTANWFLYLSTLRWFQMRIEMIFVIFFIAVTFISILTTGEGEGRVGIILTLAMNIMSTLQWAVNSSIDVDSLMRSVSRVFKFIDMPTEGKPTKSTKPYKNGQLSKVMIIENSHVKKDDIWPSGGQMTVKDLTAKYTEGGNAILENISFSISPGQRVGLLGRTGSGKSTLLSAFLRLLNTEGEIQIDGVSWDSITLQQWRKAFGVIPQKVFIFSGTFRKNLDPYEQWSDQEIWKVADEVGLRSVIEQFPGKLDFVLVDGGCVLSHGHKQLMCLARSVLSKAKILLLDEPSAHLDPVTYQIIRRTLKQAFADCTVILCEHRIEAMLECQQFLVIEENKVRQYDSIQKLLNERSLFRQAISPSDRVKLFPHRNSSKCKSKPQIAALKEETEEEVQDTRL
test-details: Cell Surface Expression-Horse Radish Peroxidase (CSE-HRP) assay;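 as to Maximum % activity (without co-corrector): % of on-plate positive control (2 µM of the co-corrector compound) after DMSO subtraction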
Format: cell-based
recorded-conditions: CFBE41o-F508delCFTR-HRP cells; without co-corrector; normalized to on-plate positive control; highest concentration 20 μM
assay-endpoint: Maximum % activity (without co-corrector)

Worked examples, 6 compounds total:
compound	reported-result
COc1ccc(C(F)(F)F)cc1C(=O)CO[C@H]1[C@H](C(C)(C)C)[C@@H](C(=O)O)N(C(=O)[C@@H]2CCCCO2)[C@H]1c1ccccc1C [Example 264]	+ (<100)
COc1cc(C(F)(F)F)ccc1CO[C@@H]1[C@@H](C(C)(C)C)[C@H](C(=O)O)N(C(=O)OC2CCC2)[C@@H]1c1ccccc1 (racemic) [Example 34]	+ (<100)
COc1ncc(C(F)(F)F)cc1CO[C@H]1[C@H](C(C)(C)C)[C@@H](C(=O)O)N(C(=O)O[C@@H](C)C(F)(F)F)[C@H]1c1cccnc1OC(C)C [Example 271]	++ (≥100 and <200)
COc1ccc(C(F)(F)F)cc1CO[C@@H]1[C@@H](C(C)(C)C)[C@H](C(=O)O)N(C(=O)[C@@H]2CCC[C@@H](OC)C2)[C@@H]1c1ccccc1 (mixture of isomers) [Example 29]	+++ (≥200)
COc1ncc(C(F)(F)F)cc1CO[C@H]1[C@H](C(C)(C)C)[C@@H](C(=O)O)N(C(=O)[C@@H]2CCCO2)[C@H]1c1ccnn1C(C)C [Example 127]	+ (<100)
CCc1ccccc1[C@H]1[C@@H](OCc2ccc(C(F)(F)F)cc2OC)[C@H](C(C)(C)C)[C@@H](C(=O)O)N1C(=O)[C@@H]1CCCCO1 [Example 184]	+++ (≥200)

For the compound shown here, COc1ncc(C(F)(F)F)cc1CO[C@H]1[C@H](C(C)(C)C)[C@@H](C(=O)O)N(C(=O)[C@@H]2CCCCO2)[C@H]1c1ccccc1CC(C)C [Example 213] , give the reported Maximum % activity (without co-corrector). +++ (≥200)

For the compound shown here, COc1ncc(C(F)(F)F)cc1CO[C@H]1[C@H](C(C)(C)C)[C@@H](C(=O)O)N(C(=O)[C@H]2CCCC[C@@H]2C(F)(F)F)[C@H]1c1cccnc1OC(C)C (single isomer, unassigned) [Example 283] , give the reported Maximum % activity (without co-corrector). + (<100)

For the compound shown here, Cc1ccccc1[C@H]1[C@@H](OCc2nc3ccccc3n2C)[C@H](C(C)(C)C)[C@@H](C(=O)O)N1C(=O)[C@@H]1CCCCO1 [Example 255] , give the reported Maximum % activity (without co-corrector). + (<100)

For the compound shown here, COc1ncc(C(C)(C)C)cc1CO[C@@H]1[C@H](C(C)(C)C)[C@@H](C(=O)O)N(C(=O)OC(C)C)[C@H]1c1ccccc1F [Example 75] , give the reported Maximum % activity (without co-corrector). + (<100)

For the compound shown here, COc1ncc(C2CCC2)cc1CO[C@H]1[C@H](C(C)(C)C)[C@@H](C(=O)O)N(C(=O)C2CCCCC2)[C@H]1c1ccccc1C1CC1 [Example 182] , give the reported Maximum % activity (without co-corrector). +++ (≥200)

For the compound shown here, COc1ncc(C(F)(F)F)cc1CO[C@H]1[C@H](C(C)(C)C)[C@@H](C(=O)O)N(C(=O)[C@@H]2CCCO2)[C@H]1c1ccccc1C(C)C [Example 98] , give the reported Maximum % activity (without co-corrector). ++ (≥100 and <200)

For the compound shown here, COc1nc2ccccc2cc1CO[C@H]1[C@H](C(C)(C)C)[C@@H](C(=O)O)N(C(=O)[C@@H]2CCCCO2)[C@H]1c1ccccc1C(C)C [Example 132] , give the reported Maximum % activity (without co-corrector). ++ (≥100 and <200)

For the compound shown here, COc1ncc(C(F)(F)F)cc1CO[C@H]1[C@H](C(C)(C)C)[C@@H](C(=O)O)N(C(=O)C2CCCCC2)[C@H]1c1ccccc1F [Example 48] , give the reported Maximum % activity (without co-corrector). ++ (≥100 and <200)

For the compound shown here, COc1ncc(C2CCCC2)cc1CO[C@H]1[C@H](C(C)(C)C)[C@@H](C(=O)O)N(C(=O)C2CCCCC2)[C@H]1c1ccccc1F [Example 57] , give the reported Maximum % activity (without co-corrector). ++ (≥100 and <200)

For the compound shown here, COc1ncc(C(F)(F)F)cc1CO[C@H]1[C@H](C(C)(C)C)[C@@H](C(=O)O)N(C(=O)OC(C)C)[C@H]1c1ccccc1C(C)C [Example 87] , give the reported Maximum % activity (without co-corrector). ++ (≥100 and <200)

For the compound shown here, COc1ncc(C2CCC2)cc1CO[C@H]1[C@H](C(C)(C)C)[C@@H](C(=O)O)N(C(=O)[C@@H]2CCCO2)[C@H]1c1ccccc1C(F)F [Example 165] , give the reported Maximum % activity (without co-corrector). ++ (≥100 and <200)

For the compound shown here, COc1ncc(C(F)(F)F)cc1CO[C@H]1[C@H](C(C)(C)C)[C@@H](C(=O)O)N(C(=O)OC(C)C)[C@H]1c1ccccc1Cl [Example 99] , give the reported Maximum % activity (without co-corrector). ++ (≥100 and <200)

For the compound shown here, COc1ncc(C(F)(F)F)cc1CO[C@H]1[C@H](C(C)(C)C)[C@@H](C(=O)O)N(C(=O)[C@@H]2CCCO2)[C@H]1c1ccccc1C(F)(F)F [Example 156] , give the reported Maximum % activity (without co-corrector). ++ (≥100 and <200)

For the compound shown here, COc1ncc(C(F)(F)F)cc1CO[C@H]1[C@H](C(C)(C)C)[C@@H](C(=O)O)N(C(=O)OC(C)C)[C@H]1c1ccccc1C [Example 83] , give the reported Maximum % activity (without co-corrector). ++ (≥100 and <200)

For the compound shown here, COc1ncc(Br)cc1CO[C@H]1[C@H](C(C)(C)C)[C@@H](C(=O)O)N(C(=O)C2CCCCC2)[C@H]1c1ccccc1F [Example 51] , give the reported Maximum % activity (without co-corrector). ++ (≥100 and <200)

For the compound shown here, COc1ncc(-c2ccc(F)cc2F)cc1CO[C@H]1[C@H](C(C)(C)C)[C@@H](C(=O)O)N(C(=O)OC(C)C)[C@H]1c1ccccc1 [Example 68] , give the reported Maximum % activity (without co-corrector). + (<100)

For the compound shown here, COc1ccc(C(C)(C)C#N)cc1CO[C@H]1[C@H](C(C)(C)C)[C@@H](C(=O)O)N(C(=O)[C@@H]2CCCCO2)[C@H]1c1ccccc1C [Example 187] , give the reported Maximum % activity (without co-corrector). +++ (≥200)

###

tested-system: F508delCFTR (Homo sapiens, UniProt P13569, DEL508-508)
Construct: expressed in transfected cells; host or cells: CFBE41o- (human lung derived epithelial cell line), doxycycline-inducible expression
test-details: Cell Surface Expression-Horse Radish Peroxidase (CSE-HRP) assay
Assay type: cell-based
recorded-conditions: CFBE41o-F508delCFTR-HRP cells; test compound without co-corrector; 18-24 hours at 33° C.; read-out: EC50 (without co-corrector)
So I've got a bunch of compounds here, and I need their EC50 values.

For the compound shown here, "COc1ncc(C(F)(F)F)cc1CO[C@H]1[C@H](C(C)(C)C)[C@@H](C(=O)O)N(C(=O)[C@H]2CCCCO2)[C@H]1c1ccccc1" , give the reported EC50. 1000 to 10000 nM

For the compound shown here, "COc1ncc(C(F)(F)F)cc1C#CCO[C@H]1[C@H](C(C)(C)C)[C@@H](C(=O)O)N(C(=O)OC(C)C)[C@H]1c1ccccc1" , give the reported EC50. < 1000 nM

For the compound shown here, "COc1ncc(C(F)(F)F)cc1CO[C@H]1[C@H](C(C)(C)C)[C@@H](C(=O)O)N(C(=O)[C@@H]2CCCCO2)[C@H]1c1ccccc1-c1ccc(C#N)cc1" , give the reported EC50. 1000 to 10000 nM

###

tested-system: F508delCFTR (Homo sapiens, UniProt P13569, DEL508-508)
Construct: expressed in transfected cells; host or cells: CFBE41o- (human lung derived epithelial cell line), doxycycline-inducible expression
test-details: Cell Surface Expression-Horse Radish Peroxidase (CSE-HRP) assay
Format: cell-based
recorded-conditions: CFBE41o-F508delCFTR-HRP cells; test compound without co-corrector; 18-24 hours at 33° C.; read-out: EC50 (without co-corrector)
pEC50: −log10 of the molar value.
So I've got a bunch of compounds here, and I need their pEC50 values.

Item: "COc1ccc(C(F)(F)F)cc1CO[C@H]1[C@H](C(C)(C)C)[C@@H](C(=O)O)N(C(=O)[C@@H]2CCCCO2)[C@H]1c1ccccc1C" Test system: F508delCFTR (Homo sapiens, UniProt P13569, DEL508-508) Read-out: pEC50 Value: ? > 6.00

Item: "COc1ncc(C(F)(F)F)cc1CO[C@H]1[C@H](C(C)(C)C)[C@@H](C(=O)O)N(C(=O)OC(C)C)[C@H]1c1cccc(Cl)c1" Test system: F508delCFTR (Homo sapiens, UniProt P13569, DEL508-508) Read-out: pEC50 Value: ? 5.00 to 6.00

Item: "COc1ncc(C(F)(F)F)cc1CO[C@H]1[C@H](C(C)(C)C)[C@@H](C(=O)O)N(C(=O)OC(C)C)[C@H]1c1ccccc1C1CCC1" Test system: F508delCFTR (Homo sapiens, UniProt P13569, DEL508-508) Read-out: pEC50 Value: ? 5.00 to 6.00
